Taken from patent US10562900B2.

# maps each entry to its IC50
SYSTEM: FGFR2 (Homo sapiens (Human), UniProt P21802)
Sequence (P21802 481-770): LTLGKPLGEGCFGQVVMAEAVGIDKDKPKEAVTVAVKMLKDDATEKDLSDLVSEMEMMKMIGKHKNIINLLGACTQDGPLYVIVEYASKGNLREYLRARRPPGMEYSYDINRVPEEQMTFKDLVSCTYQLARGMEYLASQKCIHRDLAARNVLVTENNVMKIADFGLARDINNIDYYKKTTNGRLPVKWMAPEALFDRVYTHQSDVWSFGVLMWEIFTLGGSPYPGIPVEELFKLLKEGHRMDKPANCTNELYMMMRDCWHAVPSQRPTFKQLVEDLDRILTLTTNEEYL
PROTOCOL DETAILS: FGFR2 kinase activity at the molecular level (ELISA, Poly(Glu,Tyr) 4:1 substrate)
COND: kinase domain recombinant protein, 5 μM ATP

# MOLECULE, IC50
data = [
    ("COc1cc(OC)c(F)c(-c2ccc3c(NC(=O)c4ccc(N5C[C@@H](C)N[C@@H](C)C5)cc4)n[nH]c3c2)c1", "< 100 nM"),
    ("COc1cc(OC)c(Cl)c(-c2ccc3c(NC(=O)c4ccc(N5CCN(C(C)=O)CC5)cc4)n[nH]c3c2)c1Cl", "< 100 nM"),
    ("COc1cc(OC)c(Cl)c(-c2ccc3c(NC(=O)c4ccc(N5C[C@@H](C)N[C@@H](C)C5)cc4)n[nH]c3n2)c1Cl", "< 100 nM"),
    ("COc1cc(OC)c(Cl)c(-c2ccc3c(NC(=O)c4ccc(N5CCN(C6CC6)CC5)nc4)n[nH]c3n2)c1Cl", "< 100 nM"),
    ("COc1cc(OC)c(Cl)c(-c2ccc3c(NC(=O)c4ccc(N5CCN(C)CC5)nc4)n[nH]c3n2)c1Cl", "< 100 nM"),
    ("COc1cc(OC)c(F)c(-c2ccc3c(NC(=O)c4ccc(N5CCN(C)CC5)cc4)n[nH]c3c2)c1F", "< 100 nM"),
    ("COc1cc(OC)c(F)c(-c2ccc3c(NC(=O)c4ccc(N5CCN(C)CC5)cc4)n[nH]c3n2)c1F", "< 100 nM"),
    ("COc1cc(OC)c(Cl)c(-c2ccc3c(NC(=O)c4ccc(N5CCC(N(C)C)CC5)cc4)n[nH]c3c2)c1Cl", "< 100 nM"),
    ("COc1cc(OC)cc(-c2ccc3c(NC(=O)c4ccc(N5C[C@@H](C)N[C@@H](C)C5)cc4)n[nH]c3c2)c1", "< 100 nM"),
    ("COc1cc(OC)c(Cl)c(-c2ccc3c(NC(=O)c4ccc(NC(=O)CN(C)C)cc4)n[nH]c3c2)c1Cl", "< 100 nM"),
    ("COc1cc(C(=O)Nc2n[nH]c3cc(-c4c(F)c(OC)cc(OC)c4F)ccc23)ccc1N1CCNC(C)(C)C1", "< 100 nM"),
    ("COc1cc(OC)c(Cl)c(-c2ccc3c(NC(=O)c4cnn(CCO)c4)n[nH]c3c2)c1Cl", "< 100 nM"),
    ("COc1cc(OC)c(Cl)c(-c2ccc3c(NC(=O)c4ccc(N5CCOCC5)cc4)n[nH]c3c2)c1Cl", "< 100 nM"),
    ("COc1cc(OC)c(Cl)c(-c2ccc3c(NC(=O)c4ccc(N5C[C@@H](C)N[C@@H](C)C5)nc4)n[nH]c3n2)c1Cl", "< 100 nM"),
]
